Tested on: CHLA-10 Ewing sarcoma cell line
measurement.notes: DIMSCAN in vitro testing, 96 h
Assay type: cell-based
run.parameters: 96 h, read-out: Relative IC50
observable: pIC50
Scale: negative log10 of molar concentration, which is what pIC50 denotes.

Q: Hello, please tell me recorded pIC50 for this one: COc1cc(Nc2ncc3c(n2)-c2ccc(Cl)cc2C(c2c(F)cccc2OC)=NC3)ccc1C(=O)O
Ans: 7.25

###

measurement.notes: Plasma pharmacokinetics after a single oral dose, LC/MS/MS
Assay type: in vivo, non-tumored scid mice
run.parameters: scid, mouse, po, 10.4 mg/kg
observable: Cmax
The reply must contain the numeric value and, after it, the unit.

Q: Hello, please tell me recorded Cmax for this one: COc1cc(Nc2ncc3c(n2)-c2ccc(Cl)cc2C(c2c(F)cccc2OC)=NC3)ccc1C(=O)O
Ans: 24.8 µM

###

System: Ewing sarcoma (n = 11) and neuroblastoma (n = 17) cell lines
measurement.notes: DIMSCAN in vitro testing, 96 h, whole extended panel
Format: cell-based
run.parameters: read-out: Absolute IC50, maximum
observable: IC50 (µM)
Supply the numeric figure in µM, leaving out any unit text.

Q: Hello, please tell me recorded IC50 for this one: COc1cc(Nc2ncc3c(n2)-c2ccc(Cl)cc2C(c2c(F)cccc2OC)=NC3)ccc1C(=O)O
Ans: 10

###

Tested on: SMS-KAN neuroblastoma cell line
measurement.notes: DIMSCAN in vitro testing, 96 h
Format: cell-based
run.parameters: read-out: Relative IC50
observable: pIC50
Scale: negative log10 of molar concentration, which is what pIC50 denotes.

Q: Fill in pIC50 for COc1cc(Nc2ncc3c(n2)-c2ccc(Cl)cc2C(c2c(F)cccc2OC)=NC3)ccc1C(=O)O tested with SMS-KAN neuroblastoma cell line.
Ans: 7.49

###

Test system: NB-EBc1 neuroblastoma cell line
measurement.notes: DIMSCAN in vitro testing, 96 h
Format: cell-based
run.parameters: Neuroblastoma cell, 96 h, read-out: Absolute IC50
observable: pIC50
Scale: negative log10 of molar concentration, which is what pIC50 denotes.

Q: Fill in pIC50 for COc1cc(Nc2ncc3c(n2)-c2ccc(Cl)cc2C(c2c(F)cccc2OC)=NC3)ccc1C(=O)O tested with NB-EBc1 neuroblastoma cell line.
Ans: 7.30

###

measurement.notes: Plasma pharmacokinetics after a single oral dose, LC/MS/MS
Format: in vivo, non-tumored scid mice
run.parameters: scid, mouse, po, 10.4 mg/kg
observable: Tmax (min)
Supply the numeric figure in min, leaving out any unit text.

Q: Hello, please tell me recorded Tmax for this one: COc1cc(Nc2ncc3c(n2)-c2ccc(Cl)cc2C(c2c(F)cccc2OC)=NC3)ccc1C(=O)O
Ans: 30

The reported numbers originate from paper PMC3215888.
